Hello, the source for this data is ChEMBL document CHEMBL4765483, in case you need it.

- assay_system: Adenosine receptor A1 (Homo sapiens)
- method_description: Displacement of [3H]DPCPX from human adenosine A1 receptor expressed in CHO cell membranes at 1 uM incubated for 60 mins by scintillation counting method
- condition_label: Cell membrane
Would you mind labelling by inhibition? At or over 20% is yes, under is no.

CC1=C(C(=O)OC(C)(C)C)C(c2ccoc2)NC(=S)N1 (racemic)    no
CC1=C(C(=O)OCc2ccccc2)C(c2ccco2)NC(=S)N1 (racemic)    yes
CC1=C(C(=O)OCc2ccccc2)C(c2ccsc2)NC(=S)N1 (racemic)    no
CCCC(=O)C1=C(C)NC(=O)NC1c1cccs1 (racemic)    no
CC1=C(C(=O)OC(C)C)[C@@H](c2ccco2)NC(=S)N1    no
COC(=O)C1=C(C)NC(=O)NC1c1ccoc1 (racemic)    no
CCCOC(=O)C1=C(C)NC(=O)NC1c1ccoc1 (racemic)    yes
CC1=C(C(=O)OC(C)(C)C)C(c2ccoc2)NC(=O)N1 (racemic)    no
CC1=C(C(=O)OC(C)(C)C)C(c2ccsc2)NC(=S)N1 (racemic)    no
CC1=C(C(=O)OCC2CC2)C(c2ccoc2)NC(=O)N1 (racemic)    yes

###

Below: a set of entries, each annotated with reported inhibition.
- assay_system: UniProt:P0DMS8
- Sequence (P0DMS8 whole entry): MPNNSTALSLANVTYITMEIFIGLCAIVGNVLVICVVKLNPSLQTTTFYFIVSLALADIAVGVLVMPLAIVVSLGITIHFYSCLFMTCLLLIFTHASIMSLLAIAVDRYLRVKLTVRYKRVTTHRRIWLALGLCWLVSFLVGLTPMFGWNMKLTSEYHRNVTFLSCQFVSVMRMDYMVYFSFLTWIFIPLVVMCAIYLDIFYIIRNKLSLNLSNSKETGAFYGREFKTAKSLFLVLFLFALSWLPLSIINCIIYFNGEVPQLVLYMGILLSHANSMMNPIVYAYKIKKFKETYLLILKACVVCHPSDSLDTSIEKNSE
- method_description: Displacement of [3H]NECA from adenosine A3 receptor expressed in human HeLa cell membranes at 1 uM incubated for 180 mins by scintillation counting method
- condition_label: Cell membrane
observation_type: inhibition (%)

CC1=C(C(=O)OCC(C)C)C(c2ccco2)NC(=S)N1 (racemic)    10
CC1=C(C(=O)OC2CCCCC2)C(c2cccs2)NC(=O)N1 (racemic)    1
CC1=C(C(=O)OCC(C)C)C(c2ccsc2)NC(=S)N1 (racemic)    2
CC1=C(C(=O)OC2CCCCC2)C(c2ccoc2)NC(=O)N1 (racemic)    1
CC1=C(C(=O)OC(C)(C)C)C(c2cccs2)NC(=O)N1C (racemic)    22
CC1=C(C(=O)OCC(C)C)C(c2cccs2)NC(=O)N1 (racemic)    11
CCNC(=O)C1=C(C)NC(=O)NC1c1ccoc1 (racemic)    1
CC1=C(C(=O)OCc2ccccc2)C(c2ccsc2)NC(=O)N1C (racemic)    14
CC1=C(C(=O)OC(C)(C)C)C(c2ccoc2)NC(=O)N1C (racemic)    12
CC1=C(C(=O)OC(C)(C)C)C(c2ccsc2)NC(=O)N1C (racemic)    14

###

# Lookup of reported inhibition keyed by entry
- assay_system: Adenosine receptor A2a (Homo sapiens) (UniProt P29274)
- Sequence (P29274 whole entry): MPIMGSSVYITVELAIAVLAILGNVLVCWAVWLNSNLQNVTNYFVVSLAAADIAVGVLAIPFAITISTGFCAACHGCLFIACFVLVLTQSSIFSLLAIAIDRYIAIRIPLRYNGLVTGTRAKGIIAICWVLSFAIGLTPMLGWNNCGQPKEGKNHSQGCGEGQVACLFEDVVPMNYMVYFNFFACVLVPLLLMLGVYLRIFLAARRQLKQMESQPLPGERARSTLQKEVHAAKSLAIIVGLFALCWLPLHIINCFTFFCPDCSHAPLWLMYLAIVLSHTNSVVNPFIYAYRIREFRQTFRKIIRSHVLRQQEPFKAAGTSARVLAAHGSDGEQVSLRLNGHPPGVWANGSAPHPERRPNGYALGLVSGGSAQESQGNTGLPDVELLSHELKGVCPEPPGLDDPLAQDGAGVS
- method_description: Displacement of [3H]ZM2421385 from adenosine A2A receptor expressed in human HeLa cell membranes at 1 uM incubated for 30 mins by scintillation counting method
- condition_label: Cell membrane
observation_type: inhibition (%)

CC1=C(C(=O)OCc2ccccc2)C(c2ccsc2)NC(=O)N1C (racemic)    30
CC1=C(C(=O)OC2CCCC2)C(c2ccco2)NC(=O)N1 (racemic)    23
CC1=C(C(=O)SC(C)C)C(c2ccco2)NC(=O)N1 (racemic)    2
CC1=C(C(=O)OCc2ccccc2)C(c2ccsc2)NC(=S)N1 (racemic)    16
COC(=O)C1=C(C)NC(=O)NC1c1ccsc1 (racemic)    2
CC1=C(C(=O)OC(C)(C)C)C(c2ccsc2)NC(=S)N1 (racemic)    22
CCCOC(=O)C1=C(C)NC(=O)NC1c1ccsc1 (racemic)    48
CC1=C(C(=O)OC2CCCC2)C(c2cccs2)NC(=O)N1 (racemic)    20
CC1=C(C(=O)OCc2ccccc2)C(c2cccs2)NC(=O)N1C (racemic)    3
CCCC(=O)C1=C(C)NC(=O)NC1c1ccco1 (racemic)    6
